Hello, the source for this data is paper PMC10397247, in case you need it.

Target: T1, 4H3189-bN
T1 chain: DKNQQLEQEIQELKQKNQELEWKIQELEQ
Experiment: two-hybrid library CCNG1;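 further: natural log of median RNA to DNA barcode read ratio; higher means stronger binding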
Attribute Measured: interaction score

Binder: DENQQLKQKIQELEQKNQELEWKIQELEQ [4H1845-bN]
Readout Value: -0.856

(I) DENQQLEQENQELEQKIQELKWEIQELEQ [4H1193-bN]
(II) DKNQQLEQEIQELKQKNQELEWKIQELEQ [4H3189-bN]
## Input // max by interaction score over [ I , II ] Kindly state the label of the option you pick.
## Output I
(I: -0.76, II: -1.1)
